# System: LRRK2;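 also: KINOMEscan kinase panel screen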
# recorded-conditions: concentration: 1 μM, replicates: in singlicate; n = 1
endpoint-name: %Inh (%)
Write the number in % without appending the unit.

In the examples that follow, each entry is paired with its recorded %Inh.
1. CC(C)(C)c1ccc(-n2cnc3c(N)ncnc32)cc1    22
2. Cl.O=S(=O)(c1cccc(F)c1)c1ccc(Nc2ncnc3cc(Br)sc23)cc1Cl    0
3. Cl.c1ccc(Cn2ccc3cc(Nc4ncnc5ccccc45)ccc32)cc1    0
4. Oc1ccc2ncnc(Nc3ccc(OCc4ccccc4)cc3)c2c1    48
5. Cc1cccc(-c2nc(Nc3ccc4[nH]nnc4c3)c3ccccc3n2)n1    0

%Inh reading for CCC(CC)(CC)n1cnc2c(N)ncnc21 : 9

%Inh reading for Nc1nccc2scc(-c3ccc4c(c3)CCN4C(=O)Cc3cc(F)ccc3F)c12 : 9

%Inh reading for COc1ccc(Nc2nccc(N3CCC(NC(=O)c4cccc(NC(C)=O)c4)C3)n2)cc1 (stereo not drawn) : 0

%Inh reading for Cc1cc(N2CCC(NS(=O)(=O)c3ccc(F)cc3)CC2)nc(Nc2cccc(C#N)c2)n1.O=C(O)C(F)(F)F : 20

Data origin: paper PMC5540273
